# System: SF-539 CNS
# TEST NAME: NCI tumour cell line growth inhibition, 48 h
MEASURED PARAMETER: log10 TGI (log10 of the value in µM)
Annotation: log10 of TGI, µM basis.

| COMPOUND | log10 TGI |
| --- | --- |
| CCN(CC)c1ccc(/C=N/NC(=O)c2ccc(Nc3ccnc(C(F)(F)F)c3)cc2)c(O)c1 | -0.06 |
| O=C(Oc1ccccc1)c1cc(O)c(O)c(O)c1 | 1.56 |
| NN/C(=N\S(=O)(=O)c1cc(Cl)c(Oc2ccc([N+](=O)[O-])cc2Cl)c(Cl)c1)Nc1ccc(Cl)cc1 | 1.50 |
| c1ccc(-c2nc(Nc3ccc(-c4nc5ccccc5[nH]4)cc3)nc(N3CCOCC3)n2)cc1 | 0.47 |
| CCOP(=O)(CS(C)=O)O[C@@H]1C[C@H](C)CC[C@H]1C(C)C (some centres undefined) | 1.43 |

Lookup: Let me know recorded log10 TGI for `COc1ccc2oc(=N)c(C(N)=S)cc2c1` , thanks.
Found: 1.71

Lookup: Give the measured log10 TGI for `CN(C)c1cccc2[nH]c(-c3[nH]ncc3Nc3ccnc(N)n3)nc12`
Found: -1.22

Lookup: Give the measured log10 TGI for CCc1cc(Cc2cc(CC)c(NC(=O)C3=CC(=O)CC(c4ccc(OC)cc4)O3)c(CC)c2Cl)c(Cl)c(CC)c1NC(=O)C1=CC(=O)CC(c2ccc(OC)cc2)O1 (centres undefined)
Found: 1.59
